IC50 data for c-Abl (Homo sapiens, UniProt P00519) follow.

- molecule: "c1ccc(-c2n[nH]cc2-c2ccnc(-c3ccc(OCCn4ccnc4)cc3)c2)nc1 [GW711782X]"
  IC50 / nM: 1.91
- molecule: "COC(=O)Nc1nc2ccc(Oc3ccc(NC(=O)Nc4cc(C(F)(F)F)ccc4F)cc3)cc2s1 [GW693917A]"
  IC50 / nM: 0.52
- molecule: "COc1cc(C=NNc2ncnc3c2cnn3-c2ccccc2)ccc1O [GW513184X]"
  IC50 / nM: 0.35
